- target.system: UniProtKB P23975
- Sequence (P23975 whole entry): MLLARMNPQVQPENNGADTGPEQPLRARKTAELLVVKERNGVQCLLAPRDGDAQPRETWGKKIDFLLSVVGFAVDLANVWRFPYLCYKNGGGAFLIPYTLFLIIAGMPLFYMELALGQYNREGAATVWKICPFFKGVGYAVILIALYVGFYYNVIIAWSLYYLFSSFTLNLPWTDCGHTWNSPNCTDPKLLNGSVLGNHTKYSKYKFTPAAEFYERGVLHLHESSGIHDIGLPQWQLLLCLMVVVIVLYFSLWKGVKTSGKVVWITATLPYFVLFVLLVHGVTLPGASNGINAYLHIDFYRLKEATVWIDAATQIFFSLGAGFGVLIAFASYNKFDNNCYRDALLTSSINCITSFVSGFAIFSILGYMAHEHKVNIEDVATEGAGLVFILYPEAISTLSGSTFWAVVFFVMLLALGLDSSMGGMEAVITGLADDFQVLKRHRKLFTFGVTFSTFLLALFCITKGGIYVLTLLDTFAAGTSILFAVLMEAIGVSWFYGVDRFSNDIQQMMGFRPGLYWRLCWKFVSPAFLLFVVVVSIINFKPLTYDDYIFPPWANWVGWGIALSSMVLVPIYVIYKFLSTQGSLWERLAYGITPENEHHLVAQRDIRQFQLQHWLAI
quantity.kind: pKi
Please treat pKi as minus the base-10 logarithm of the molar concentration.

// query Bench note: what pKi did CCSCCNC(CC(C)C)C1(c2ccc(Cl)c(Cl)c2)CCC1 (stereo unspecified) [US10035761, Compound 13f] show?
// result 6.92
